Numbers sourced from patent US20260174875A1.

system_under_test: human GLP-1 receptor (hGLP-1R) (Homo sapiens, UniProt P43220)
Construct: expressed in transfected cells
Sequence (P43220 24-463): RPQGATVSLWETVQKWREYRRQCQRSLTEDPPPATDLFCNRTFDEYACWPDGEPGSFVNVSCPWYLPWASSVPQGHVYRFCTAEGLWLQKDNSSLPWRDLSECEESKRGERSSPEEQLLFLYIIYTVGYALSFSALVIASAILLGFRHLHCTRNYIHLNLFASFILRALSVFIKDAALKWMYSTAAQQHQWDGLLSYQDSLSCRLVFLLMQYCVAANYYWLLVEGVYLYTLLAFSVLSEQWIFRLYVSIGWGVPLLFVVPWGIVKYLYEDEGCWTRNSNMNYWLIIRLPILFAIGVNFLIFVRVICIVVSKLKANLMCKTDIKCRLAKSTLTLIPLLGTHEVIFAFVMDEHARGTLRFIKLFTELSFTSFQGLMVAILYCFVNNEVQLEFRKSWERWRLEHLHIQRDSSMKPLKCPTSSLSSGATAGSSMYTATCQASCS
method: GLP-1 receptor assay, method A (CRE-luciferase reporter, BHK cells)
Format: cell-based
setup_conditions: method A, absence of HSA; read-out: hGLP-1R Potency, no HSA, EC50
Numbered stars: 1 amine (or outer) side, 2 acyl side, 3 side chain; on linkers, the order of the positions; unused ones are H or OH. Square brackets hold non-standard residues; d marks the D form. Side chains are listed from the residue outwards. * marks the point of attachment. C18 diacid = O=C(O)CCCCCCCCCCCCCCCCC(=O)*; γGlu = O=C(O)[C@H](CCC(=O)[*:2])N[*:1]; AEEA = NCCOCCOCC(=O)O; Aib = CC(C)(N)C(=O)O
Below is a list of entries, each paired with its recorded EC50 value.
I only need the number, in nM, no unit after it.

Example results:
Y[Aib]EGTFTSDYSILLEEQAAREFIEWLLAGGPSK([AEEA-AEEA-γGlu-C18 diacid])GEASELSTAALGRLSAELHYLATLPRTETGSGSP-NH2 [Compound 29]; 0.0271
H[Aib]HGTFTSDYSILLEEQAAREFIEWLLAGGPSK([AEEA-AEEA-γGlu-C18 diacid])GEASQLSTAALGRLSAELHRLATLPRTETGSGSP-NH2 [Compound 73]; 0.00455

Let us move to another entry and its EC50.
Item Y[Aib]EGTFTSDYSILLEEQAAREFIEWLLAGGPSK([AEEA-AEEA-γGlu-C18 diacid])GALAQTLFVNQASELSTAALGRLSAELHELATLPRTETGSGSP-NH2 [Compound 24] has what recorded EC50?
0.0515

====

system_under_test: human amylin receptor (hAMYR3) (Homo sapiens, UniProt O60896+P30988)
Construct: host or cells: BHK cells (Hollex-1 line expressing hCTR(a) and CRE-Luc), further transfected with human RAMP3
Sequence (P30988 25-474): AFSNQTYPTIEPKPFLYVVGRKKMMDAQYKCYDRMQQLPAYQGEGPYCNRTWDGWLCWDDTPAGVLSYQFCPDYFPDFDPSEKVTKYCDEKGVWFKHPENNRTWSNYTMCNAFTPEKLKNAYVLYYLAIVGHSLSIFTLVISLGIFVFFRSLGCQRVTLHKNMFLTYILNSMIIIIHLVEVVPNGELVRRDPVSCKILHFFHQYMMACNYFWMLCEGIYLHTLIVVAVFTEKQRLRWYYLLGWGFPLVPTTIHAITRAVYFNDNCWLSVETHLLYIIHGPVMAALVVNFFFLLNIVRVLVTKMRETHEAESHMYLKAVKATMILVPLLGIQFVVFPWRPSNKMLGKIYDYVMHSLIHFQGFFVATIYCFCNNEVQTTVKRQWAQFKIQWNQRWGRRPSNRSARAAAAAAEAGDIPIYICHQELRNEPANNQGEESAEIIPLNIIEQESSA
Sequence (O60896 24-148): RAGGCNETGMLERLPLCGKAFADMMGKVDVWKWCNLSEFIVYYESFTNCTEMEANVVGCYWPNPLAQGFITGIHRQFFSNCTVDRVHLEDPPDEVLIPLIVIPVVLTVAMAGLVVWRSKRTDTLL
method: Amylin receptor assay, method A (CRE-luciferase reporter, BHK cells)
Format: cell-based
setup_conditions: method A, absence of HSA; read-out: hAMYR3 Potency, no HSA, EC50
Description: To assess how the activation of the receptors is potentially influenced by the presence of human serum albumin (HSA), the in vitro assays were performed in the absence of HSA and presence of 1% (w/v) HSA. It is thus possible to measure hAMYR3 activity using a CRE-luciferase reporter gene introduced into Baby Hamster Kidney (BHK) cells co-expressing the hAMYR3. […] The plate was incubated over night at 37° C. in 5% CO2. […] Luminescence was detected on a luminescence plate reader e.g., a Synergy 2 (BioTek).
Numbered stars: 1 amine (or outer) side, 2 acyl side, 3 side chain; on linkers, the order of the positions; unused ones are H or OH. Square brackets hold non-standard residues; d marks the D form. Side chains are listed from the residue outwards. * marks the point of attachment. C18 diacid = O=C(O)CCCCCCCCCCCCCCCCC(=O)*; γGlu = O=C(O)[C@H](CCC(=O)[*:2])N[*:1]; AEEA = NCCOCCOCC(=O)O; Aib = CC(C)(N)C(=O)O
value_type: EC50 (pM)
Enter your answer as a number in pM; do not include the unit.

Y[Aib]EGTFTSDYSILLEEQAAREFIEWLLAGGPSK([AEEA-AEEA-γGlu-C18 diacid])GEASELSTAALARLSAELHRLATLPRTETGSGSP-NH2 [Compound 28]; 2.28
H[Aib]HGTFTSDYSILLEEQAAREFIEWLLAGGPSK([AEEA-AEEA-γGlu-C18 diacid])GEASQLSTAALGRLSAELHGLATLPRTETGSGSP-NH2 [Compound 65]; 2.84
Y[Aib]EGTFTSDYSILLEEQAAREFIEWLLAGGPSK([AEEA-AEEA-γGlu-C18 diacid])GALAQTLFVNQASELSTAALGRLSAELHELATLPRTETGSGSP-NH2 [Compound 24]; 4.24
Y[Aib]EGTFTSDYSILLEEQAAREFIEWLLAGGPSSGALQAPGQAPLASHLSTAQTARLSAELHK([AEEA-AEEA-γGlu-C18 diacid])LATLPRTETGSGSP-NH2 [Compound 105]; 2.88

Query: EC50; subject: Y[Aib]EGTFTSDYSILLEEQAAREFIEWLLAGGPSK([AEEA-AEEA-γGlu-C18 diacid])GEASHLSTAQTQRLSAELHELATLPRTETGSGSP-NH2 [Compound 34]
6.81
